tested-target: KRAS G12C (Homo sapiens, UniProt P01116, G12C)
Sequence (P01116 1-188 isoform P01116-2 G12C): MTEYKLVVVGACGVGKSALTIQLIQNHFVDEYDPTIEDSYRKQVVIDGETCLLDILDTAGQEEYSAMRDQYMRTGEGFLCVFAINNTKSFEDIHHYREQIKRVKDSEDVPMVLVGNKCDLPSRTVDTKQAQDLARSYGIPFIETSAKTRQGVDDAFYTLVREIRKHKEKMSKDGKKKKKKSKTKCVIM
test: KRAS G12C NEA-HTRF experiment (SOS1-catalyzed displacement of GDP by GTP)
endpoint-label: pIC50
Please express pIC50 as -log10 of the molar concentration.

*Q* Sample C=CC(=O)N1CCN2C(=O)c3c(NC(C)C)nc(-c4c(O)cccc4F)c(Cl)c3OC[C@H]2C1 — what was its pIC50?
*A* 6.86

*Q* Sample C=CC(=O)N1CCN2C(=O)c3c(N4CC(CO)CC4(C)C)nc(-c4c(O)cccc4F)c(Cl)c3OC[C@H]2C1 (stereo partly drawn) — what was its pIC50?
*A* 8.00

*Q* Sample C=CC(=O)N1CCN2C(=O)c3c(N4C[C@@H](N(C)CC(F)F)CC4(C)C)nc(-c4ccccc4F)c(Cl)c3OC[C@H]2C1 (single isomer, unassigned) — what was its pIC50?
*A* 7.11

*Q* Sample C=CC(=O)N1CCN2C(=O)c3c(N4CC(=O)N(CC)C[C@@H]4C)nc(-c4c(O)cccc4F)c(Cl)c3OC[C@H]2C1 — what was its pIC50?
*A* 8.05

*Q* Sample C=CC(=O)N1CCN2C(=O)c3c(N4C[C@H](NCC(F)(F)F)CC4(C)C)nc(-c4ccccc4F)c(Cl)c3OC[C@H]2C1 (single isomer, unassigned) — what was its pIC50?
*A* 6.63

*Q* Sample C=CC(=O)N1CCN2C(=O)c3c(N4CC[C@@H](OC)[C@@H]4C)nc(-c4c(O)cccc4F)c(Cl)c3OC[C@H]2C1 — what was its pIC50?
*A* 7.41

###

tested-target: KRAS G12C (Homo sapiens, UniProt P01116, G12C)
Construct: purchased Reactionbiology
test: KRAS G12C NEA-HTRF experiment (SOS1-catalyzed displacement of GDP by GTP)
Format: biochemical
Give pIC50 for every item shown.
Please express pIC50 as -log10 of the molar concentration.

*Q* Sample C=CC(=O)N1CCN2C(=O)c3c(N4C[C@H](C(=O)O)CC4(C)C)nc(-c4c(O)cccc4F)c(Cl)c3OC[C@H]2C1 (single isomer, unassigned) — what was its pIC50?
*A* 6.60

*Q* Sample C=CC(=O)N1CCN2C(=O)c3c(N4C[C@@](C)(O)CC4(C)C)nc(-c4c(O)cccc4F)c(Cl)c3OC[C@H]2C1 (single isomer, unassigned) — what was its pIC50?
*A* 8.15

*Q* Sample C=CC(=O)N1CCN2C(=O)c3c(N4CCO[C@](C)(CO)C4)nc(-c4c(O)cccc4F)c(Cl)c3OC[C@H]2C1 (single isomer, unassigned) — what was its pIC50?
*A* 6.72

###

tested-target: KRAS G12C (Homo sapiens, UniProt P01116, G12C)
test: KRAS G12C NEA-HTRF experiment (SOS1-catalyzed displacement of GDP by GTP)
Description: […]
Where a name gives a salt, the structure may show the parent alone.
True if IC50 is below 30 nM. False if not; exact matches included in False.

*Q* Item C=CC(=O)N1CCN2C(=O)c3c(N4C[C@@H](N(C)C)CC4(C)C)nc(-c4ccccc4)c(Cl)c3OC[C@H]2C1 (single isomer, unassigned) [Z655-1] : IC50 beneath 30 nM, strictly?
*A* False

*Q* Item C=CC(=O)N1CCN2C(=O)c3c(N4CCN(C)C[C@@H]4C)nc(-c4c(F)ccc(Cl)c4O)c(Cl)c3OC[C@H]2C1 [Z342] : IC50 beneath 30 nM, strictly?
*A* False

*Q* Item C=CC(=O)N1CCN2C(=O)c3c(N4C[C@@H](OC)CC4(C)C)nc(-c4c(O)cccc4F)c(F)c3OC[C@H]2C1 (single isomer, unassigned) [Z256a-1] : IC50 beneath 30 nM, strictly?
*A* False

*Q* Item C=CC(=O)N1CCN2C(=O)c3c(N4C[C@@H](NC)CC4(C)C)nc(-c4ccccc4F)c(Cl)c3OC[C@H]2C1 (single isomer, unassigned) [Z661-1] : IC50 beneath 30 nM, strictly?
*A* False

*Q* Item C=CC(=O)N1CCN2C(=O)c3c(N4CCC(OC)C4(C)C)nc(-c4c(O)cccc4F)c(Cl)c3OC[C@H]2C1 (stereo partly shown) [Z241a] : IC50 beneath 30 nM, strictly?
*A* True

*Q* Item C=CC(=O)N1CCN2C(=O)c3c(N4CCCC45CC5)nc(-c4c(O)cccc4F)c(Cl)c3OC[C@H]2C1 [Z56] : IC50 beneath 30 nM, strictly?
*A* False

*Q* Item C=CC(=O)N1CCN2C(=O)c3c(N4CCN(CC)C(C)(C)C4)nc(-c4c(O)cccc4F)c(Cl)c3OC[C@H]2C1 [Z322] : IC50 beneath 30 nM, strictly?
*A* False

*Q* Item C=CC(=O)N1CCN2C(=O)c3c(N4C[C@@H](OC)C[C@@H]4C)nc(-c4c(O)cccc4F)c(F)c3OC[C@H]2C1 [Z359-1] : IC50 beneath 30 nM, strictly?
*A* False

*Q* Item C=CC(=O)N1CCN2C(=O)c3c(N4C[C@@H](O)CC4(C)C)nc(-c4c(F)ccc(Cl)c4O)c(F)c3OC[C@H]2C1 (single isomer, unassigned) [Z341-1] : IC50 beneath 30 nM, strictly?
*A* False

*Q* Item C=CC(=O)N1CCN2C(=O)c3c(N4CC(OC)CC4(C)C)nc(-c4c(O)cccc4F)c(Cl)c3OC[C@H]2C1 (stereo partly shown) [Z244] : IC50 beneath 30 nM, strictly?
*A* False

*Q* Item C=CC(=O)N1CCN2C(=O)c3c(N4C[C@@H](O)CC4(C)C)nc(-c4c(O)cccc4F)c(Cl)c3OC[C@H]2C1 (single isomer, unassigned) [Z81] : IC50 beneath 30 nM, strictly?
*A* True

*Q* Item C=CC(=O)N1CCN2C(=O)c3c(N4C[C@@H](N5CC(F)C5)CC4(C)C)nc(-c4ccccc4F)c(F)c3OC[C@H]2C1 [Z654-1] : IC50 beneath 30 nM, strictly?
*A* False

*Q* Item C=CC(=O)N1CCN2C(=O)c3c(N4CCN(C(=O)CC)C[C@@H]4C)nc(-c4ccccc4F)c(Cl)c3OC[C@H]2C1 [Z477] : IC50 beneath 30 nM, strictly?
*A* False

*Q* Item C=CC(=O)N1CCN2C(=O)c3c(N4CCN(C)C[C@@H]4C)nc(-c4c(N)cccc4F)c(Cl)c3OC[C@H]2C1 [Z503] : IC50 beneath 30 nM, strictly?
*A* False

*Q* Item C=CC(=O)N1CCN2C(=O)c3c(N4CCN(C)C(C)(C)C4)nc(-c4ccccc4F)c(Cl)c3OC[C@H]2C1 [Z463, formate] : IC50 beneath 30 nM, strictly?
*A* False

*Q* Item C=CC(=O)N1CCN2C(=O)c3c(N4C[C@H](O)[C@H]4C)nc(-c4c(O)cccc4F)c(Cl)c3OC[C@H]2C1 (single isomer, unassigned) [Z102-4] : IC50 beneath 30 nM, strictly?
*A* False

*Q* Item C=CC(=O)N1CCN2C(=O)c3c(N4C[C@@H](O)C[C@@H]4C)nc(-c4c(O)cccc4F)c(Cl)c3OC[C@H]2C1 [Z260] : IC50 beneath 30 nM, strictly?
*A* False

*Q* Item C=CC(=O)N1CCN2C(=O)c3c(N4CCN(C)C[C@@H]4C)nc(-c4nc(N)cc(C)c4C(F)(F)F)c(Cl)c3OC[C@H]2C1 [Z328-1] : IC50 beneath 30 nM, strictly?
*A* True

*Q* Item C=CC(=O)N1CCN2C(=O)c3c(N4C[C@@H](N(C)CCO)CC4(C)C)nc(-c4ccccc4F)c(Cl)c3OC[C@H]2C1 (single isomer, unassigned) [Z658-1] : IC50 beneath 30 nM, strictly?
*A* True

*Q* Item C=CC(=O)N1CCN2C(=O)c3c(N4CC(N5CC(C(F)(F)F)C5)CC4(C)C)nc(-c4ccccc4F)c(Cl)c3OC[C@H]2C1 (single isomer, unassigned) [Z608-2] : IC50 beneath 30 nM, strictly?
*A* False

*Q* Item C=CC(=O)N1CCN2C(=O)c3c(N4CC(N(C)CC)CC4(C)C)nc(-c4ccccc4F)c(Cl)c3OC[C@H]2C1 (stereo partly shown) [Z657] : IC50 beneath 30 nM, strictly?
*A* False

*Q* Item C=CC(=O)N1CCN2C(=O)c3c(N4CCN(C)[C@@H](C)[C@@H]4C)nc(-c4ccccc4F)c(Cl)c3OC[C@H]2C1 [Z653] : IC50 beneath 30 nM, strictly?
*A* False

*Q* Item C=CC(=O)N1CCN2C(=O)c3c(N4CC(N(C)CCO)CC4(C)C)nc(-c4ccccc4F)c(Cl)c3OC[C@H]2C1 (stereo partly shown) [Z658] : IC50 beneath 30 nM, strictly?
*A* True

*Q* Item C=CC(=O)N1CCN2C(=O)c3c(N4CC[C@@H](OC)C4(C)C)nc(-c4c(O)cccc4F)c(Cl)c3OC[C@H]2C1 (single isomer, unassigned) [Z241a-2] : IC50 beneath 30 nM, strictly?
*A* True

*Q* Item C=CC(=O)N1CCN2C(=O)c3c(N4CCOCC4)nc(-c4nc(N)cc(C)c4C(F)(F)F)c(Cl)c3OC[C@H]2C1 [Z314] : IC50 beneath 30 nM, strictly?
*A* False

The reported numbers originate from patent US20230203060A1.
